- APPLIED CONDITIONS: 308.15 K; 101.33 kPa; Liquid; Vibrating tube method
VALUE KIND: mass density (kg/m3)
State just the number; it will be interpreted in kg/m3.

The following molecules have reported results that may help.
> print(dat)
                                smiles.data    value.kind  value.observed
1  CCCC[N+]1(C)CCCCC1.O=S(=O)([N-]S(=O)(=O)C(F)(F)F)C(F)(F)F  mass density          1373.8
2  CC(C)Cn1cc[n+](C)c1.O=S(=O)([N-]S(=O)(=O)C(F)(F)F)C(F)(F)F  mass density          1427.7

Endpoint output: mass density of `CC(C)C[N+]1(C)CCCC1.O=S(=O)([N-]S(=O)(=O)C(F)(F)F)C(F)(F)F` . Value?
1391.2

Requested read-out: mass density. Entry: `CCCC[N+]1(C)CCCC1.O=S(=O)([N-]S(=O)(=O)C(F)(F)F)C(F)(F)F`
1392.7

Which mass density value belongs to `CC(C)C[N+]1(C)CCCCC1.O=S(=O)([N-]S(=O)(=O)C(F)(F)F)C(F)(F)F` ?
1388.6

Please report the recorded mass density for `CCCC[n+]1cccc(C)c1.O=S(=O)([N-]S(=O)(=O)C(F)(F)F)C(F)(F)F` .
1404.8

Item under review: `Cc1ccc[n+](CC(C)C)c1.O=S(=O)([N-]S(=O)(=O)C(F)(F)F)C(F)(F)F` . Reported mass density?
1403.4

====

- APPLIED CONDITIONS: 353.15 K; 101.33 kPa; Liquid; Vibrating tube method
This section presents molecules with their documented mass density values.
Lab book: enter the figure in kg/m3, no units written.

Answered cases to consult:
> print(dat)
                                smiles.data    value.kind  output.unit  value.observed
1  CCCC[N+]1(C)CCCCC1.O=S(=O)([N-]S(=O)(=O)C(F)(F)F)C(F)(F)F  mass density        kg/m3          1335.9
2  CC(C)Cn1cc[n+](C)c1.O=S(=O)([N-]S(=O)(=O)C(F)(F)F)C(F)(F)F  mass density        kg/m3          1385.7
3  CC(C)C[N+]1(C)CCCC1.O=S(=O)([N-]S(=O)(=O)C(F)(F)F)C(F)(F)F  mass density        kg/m3          1352.5

Could you tell me which mass density is on file for `CCCC[N+]1(C)CCCC1.O=S(=O)([N-]S(=O)(=O)C(F)(F)F)C(F)(F)F` ?
1353.6

Reported mass density, molecule `CC(C)C[N+]1(C)CCCCC1.O=S(=O)([N-]S(=O)(=O)C(F)(F)F)C(F)(F)F` : ____
1350.8

Using the record for `Cc1ccc[n+](CC(C)C)c1.O=S(=O)([N-]S(=O)(=O)C(F)(F)F)C(F)(F)F` , report its mass density.
1362.8

What value of measured mass density is listed for `CCCC[n+]1cccc(C)c1.O=S(=O)([N-]S(=O)(=O)C(F)(F)F)C(F)(F)F` ?
1364.3

====

- TEST DETAILS: refractive index (Na D-line) (dimensionless)
- APPLIED CONDITIONS: 308.15 K; 101.33 kPa; Liquid; Standard Abbe refractometry
Measured refractive index accompanies every entry in the list below.
In your answer, state the number alone without any accompanying words.

The cases that follow already have their refractive index on record.
> print(dat)
                                smiles.data        value.kind  value.observed
1  CC(C)Cn1cc[n+](C)c1.O=S(=O)([N-]S(=O)(=O)C(F)(F)F)C(F)(F)F  refractive index         1.42387
2  CCCC[n+]1cccc(C)c1.O=S(=O)([N-]S(=O)(=O)C(F)(F)F)C(F)(F)F  refractive index         1.44266
3  CC(C)C[N+]1(C)CCCCC1.O=S(=O)([N-]S(=O)(=O)C(F)(F)F)C(F)(F)F  refractive index         1.42812
4  CCCC[N+]1(C)CCCC1.O=S(=O)([N-]S(=O)(=O)C(F)(F)F)C(F)(F)F  refractive index         1.42027

So what does the record say about refractive index for `CCCC[n+]1ccn(C)c1.O=S(=O)([N-]S(=O)(=O)C(F)(F)F)C(F)(F)F` ?
1.42396

Could you share which refractive index value was measured for `CC(C)C[N+]1(C)CCCC1.O=S(=O)([N-]S(=O)(=O)C(F)(F)F)C(F)(F)F` ?
1.42127

Bench note: what refractive index did `CCCC[N+]1(C)CCCCC1.O=S(=O)([N-]S(=O)(=O)C(F)(F)F)C(F)(F)F` show?
1.42667

Name the recorded refractive index for `Cc1ccc[n+](CC(C)C)c1.O=S(=O)([N-]S(=O)(=O)C(F)(F)F)C(F)(F)F` .
1.44268

====

Entries and their viscosity values follow.
- APPLIED CONDITIONS: 303.15 K; 101.33 kPa; Liquid; Concentric cylinders viscometry
# value in mPa·s; strip the unit string

The examples below pair each entry with its known result.
> print(dat)
                                smiles.data  value.kind  output.unit  value.observed
1  CCCC[N+]1(C)CCCCC1.O=S(=O)([N-]S(=O)(=O)C(F)(F)F)C(F)(F)F   viscosity        mPa·s          141.44
2  CC(C)Cn1cc[n+](C)c1.O=S(=O)([N-]S(=O)(=O)C(F)(F)F)C(F)(F)F   viscosity        mPa·s           63.36
3  CC(C)C[N+]1(C)CCCCC1.O=S(=O)([N-]S(=O)(=O)C(F)(F)F)C(F)(F)F   viscosity        mPa·s          125.12
4  Cc1ccc[n+](CC(C)C)c1.O=S(=O)([N-]S(=O)(=O)C(F)(F)F)C(F)(F)F   viscosity        mPa·s           76.34
5  CCCC[N+]1(C)CCCC1.O=S(=O)([N-]S(=O)(=O)C(F)(F)F)C(F)(F)F   viscosity        mPa·s           63.64
6  CC(C)C[N+]1(C)CCCC1.O=S(=O)([N-]S(=O)(=O)C(F)(F)F)C(F)(F)F   viscosity        mPa·s           53.53

Then this compound:
Endpoint output: viscosity of `CCCC[n+]1cccc(C)c1.O=S(=O)([N-]S(=O)(=O)C(F)(F)F)C(F)(F)F` . Value?
52.39

====

mass density values, listed per item
- APPLIED CONDITIONS: 323.15 K; 101.33 kPa; Liquid; Vibrating tube method
Quick note: give the figure in kg/m3, leave out the unit.

Solved cases below.
> print(dat)
                                smiles.data  output.unit  value.observed
1  CC(C)C[N+]1(C)CCCC1.O=S(=O)([N-]S(=O)(=O)C(F)(F)F)C(F)(F)F        kg/m3            1378
2  Cc1ccc[n+](CC(C)C)c1.O=S(=O)([N-]S(=O)(=O)C(F)(F)F)C(F)(F)F        kg/m3          1389.7
3  CC(C)Cn1cc[n+](C)c1.O=S(=O)([N-]S(=O)(=O)C(F)(F)F)C(F)(F)F        kg/m3          1413.5
4  CC(C)C[N+]1(C)CCCCC1.O=S(=O)([N-]S(=O)(=O)C(F)(F)F)C(F)(F)F        kg/m3          1375.9
5  CCCC[N+]1(C)CCCC1.O=S(=O)([N-]S(=O)(=O)C(F)(F)F)C(F)(F)F        kg/m3          1379.4
6  CCCC[N+]1(C)CCCCC1.O=S(=O)([N-]S(=O)(=O)C(F)(F)F)C(F)(F)F        kg/m3            1361

Could you now look at the following molecule, please?
Consider the molecule `CCCC[n+]1cccc(C)c1.O=S(=O)([N-]S(=O)(=O)C(F)(F)F)C(F)(F)F` and give its measured mass density.
1391.1

====

- APPLIED CONDITIONS: 318.15 K; 101.33 kPa; Liquid; Concentric cylinders viscometry
Label satisfied when viscosity is at or above 40 mPa·s; otherwise label not satisfied.

State whether the measured viscosity reaches 40 mPa·s, counting equality as reaching it, for `CCCC[n+]1cccc(C)c1.O=S(=O)([N-]S(=O)(=O)C(F)(F)F)C(F)(F)F`
not satisfied

Hello, I need to know if `CC(C)Cn1cc[n+](C)c1.O=S(=O)([N-]S(=O)(=O)C(F)(F)F)C(F)(F)F` has measured viscosity not below 40 mPa·s. Thanks!
not satisfied

Does the compound `CC(C)C[N+]1(C)CCCC1.O=S(=O)([N-]S(=O)(=O)C(F)(F)F)C(F)(F)F` have recorded viscosity that is 40 mPa·s or more?
not satisfied

Is it the case that `CC(C)C[N+]1(C)CCCCC1.O=S(=O)([N-]S(=O)(=O)C(F)(F)F)C(F)(F)F` has viscosity reaching or exceeding 40 mPa·s?
satisfied

Does the compound `CCCC[N+]1(C)CCCCC1.O=S(=O)([N-]S(=O)(=O)C(F)(F)F)C(F)(F)F` have recorded viscosity that is 40 mPa·s or more?
satisfied

# bool: viscosity of `Cc1ccc[n+](CC(C)C)c1.O=S(=O)([N-]S(=O)(=O)C(F)(F)F)C(F)(F)F` >= 40 mPa·s
not satisfied

Could you verify whether the entry `CCCC[N+]1(C)CCCC1.O=S(=O)([N-]S(=O)(=O)C(F)(F)F)C(F)(F)F` shows viscosity of no less than 40 mPa·s?
not satisfied
